Source of measurements: patent US9815851B2

Recorded IC50 by entry
- tested-system: RORγ ligand binding domain (LBD) (Homo sapiens)
- Construct: made in house; host or cells: E. coli BL-21 (BL3), vector pDEST15
- Sequence (P51449 269-508 limits assumed): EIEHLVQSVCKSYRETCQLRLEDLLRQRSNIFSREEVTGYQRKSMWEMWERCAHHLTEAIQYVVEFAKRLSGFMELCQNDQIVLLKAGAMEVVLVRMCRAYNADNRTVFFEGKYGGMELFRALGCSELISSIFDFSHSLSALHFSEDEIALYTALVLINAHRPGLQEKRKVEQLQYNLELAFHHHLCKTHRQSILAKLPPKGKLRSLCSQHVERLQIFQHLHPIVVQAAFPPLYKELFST
- experiment-summary: TR-FRET Activity Assay (ligand sensing, RORγ-LBD / coactivator peptide interaction, LANCE)
- Type: biochemical
Kindly answer with a numeric value in nM, unit omitted.

Below are worked cases with known answers.
Cc1c(C(=O)NCC2(O)CCOCC2)cc(-c2cc(C(=O)NC(C)(C)C)cc(C3(C)CC3)c2)n1CC1CCCCC1 :: 794
Cc1c(C(=O)NC2CCOCC2)cc(-c2ccc(C(=O)NC3CCCCC3)c(C(C)(C)C)c2)n1CC1CCCCC1 :: 631
Cc1c(C(=O)NC2CCOCC2)cc(-c2ccc(S(=O)(=O)NC3(C)CC3)c(C(C)(C)C)c2)n1CC1CCCCC1 :: 501

Input: Can you share its IC50? I mean this compound: `COCC1(CNC(=O)c2cc(-c3cc(C(C)(C)C)cc(C4(C)CC4)c3)n(CC3CCCCC3)c2C)COC1`
Output: 200
